assayOverview: protein stability index of a GFP-peptide fusion (GPS, HEK-293T) (PSI 1-6); higher = more stable;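 further: 24-mer peptide tiles fused after GFP, lentivirally expressed, FACS-sorted into six equal bins by GFP/DsRed ratio, decoded by Illumina sequencing, PSI is the read-weighted mean bin number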
cond: treatment: DMSO; c terminus: a fixed tail appended
Tag: satisfied if measured protein stability index is not below 3, not satisfied if it is.

sequenceCode | discreteLabel
GFRESDSAKPASLRLLQHTPSARR [C6orf223] | satisfied
KAGSSEWLAVDGLVSPSNNSKEDA [ATF4] | satisfied
LKNEVERLKKQLRAAQLQHSEKMA [CCDC6] | not satisfied
RDSYSSSSRGAPRGGGRGGSRSDR [RBMX] | satisfied

Has SYKARLPLRLFLIIANTMAFQNDV [SCD] a recorded protein stability index greater than or equal to 3?
not satisfied

Has ASFHHKLHHKRLAKECMLQEENKS [CBY2] a recorded protein stability index greater than or equal to 3?
satisfied

Has MEEASEGGGNDRVRNLQSEVEGVK [VAMP8] a recorded protein stability index greater than or equal to 3?
satisfied

Has LYRTLFSVINNGHNQKVHMHMVDL [PDS5B] a recorded protein stability index greater than or equal to 3?
not satisfied

Has EEQESVDTGEEEEGGDESDLSSES [EHMT1] a recorded protein stability index greater than or equal to 3?
satisfied

Has CNTFVYSSSKGTIRLCDMRASALC [PPP2R2B] a recorded protein stability index greater than or equal to 3?
not satisfied

Has EKPRVPAFACQVAGCCQVFDALDD [ZNF511] a recorded protein stability index greater than or equal to 3?
satisfied

Has VQVLTMGNDTSPSEGTNLNAPNSL [HNF4A] a recorded protein stability index greater than or equal to 3?
satisfied

Has EDSIPLRGLSQNLFSNSDHQRDGT [SASS6] a recorded protein stability index greater than or equal to 3?
satisfied

Has HQDVPSQDDSKPTQRQFTILNFND [AASDHPPT] a recorded protein stability index greater than or equal to 3?
satisfied

Has EPATPEEGEPATQRQDPAAAQEGE [GAGE1] a recorded protein stability index greater than or equal to 3?
satisfied

Has ISSSSFGAEPSAPGGGGSPGACPA [RTN3] a recorded protein stability index greater than or equal to 3?
satisfied

Has SEEKLALDNNASASGNATQTESGS [C10orf62] a recorded protein stability index greater than or equal to 3?
satisfied

Has EVAAQLPAVRQLLPCARVQICRAQ [ZSWIM9] a recorded protein stability index greater than or equal to 3?
not satisfied

Has TIEQSLLEVMEEEELANLRASQRE [RSPH3] a recorded protein stability index greater than or equal to 3?
satisfied

Has VVEKRLCMYEHGEDTHQSPEPEDE [RSPH3] a recorded protein stability index greater than or equal to 3?
satisfied

Has LDRHQLPLDDALLSFAHANCTLII [DPCD] a recorded protein stability index greater than or equal to 3?
not satisfied

###

assayOverview: protein stability index of a GFP-peptide fusion (GPS, HEK-293T) (PSI 1-6); higher = more stable
cond: treatment: DMSO; c terminus: a fixed tail appended
Here the recorded protein stability index is given for each entry.
In your answer, state the number alone without any accompanying words.

Take a look at these entries with their results.
sequenceCode | protein stability index
KLDPTLSSCFFIESCGAQVPVEGS | 3.02
DAAAILLDEQNKRPCRKFLLTGQC [ZMAT5] | 2.98
GVRCNTPAMGLQKKLRLNGGRNPY [LOXL2] | 2.75
QTHSNTIVVSLQSKLASMSNDFKS [STX5] | 2.8
NDRMSTRHDGYATNDGNHPSCQET [RBMY1A1] | 5.17

Continue with the sequence presented below.
Per the record, EKNFFPEYNYDWWEKKPFSEDVNW [CHGB] has protein stability index of 2.78
